Experiment: Blocker Index (BI), expert grader ranking of malodor strength of isovaleric acid swatch treated with test material
Conditions: test material Conc 50 ppm on swatch with 20 μL 0.08% isovaleric acid; scale 0 to 3
observation type: BI
When you answer, write just the number.

Example compounds with recorded BI:
compound: C=C1CCC2OC2(C)CCC2C1CC2(C)C (stereo not drawn)
observation type: BI
numeric value: 2.3
//
compound: CC(C)(C)C1CCCCC1
observation type: BI
numeric value: 2.0
//
compound: CCCCCCCCCCCC(=O)OCC
observation type: BI
numeric value: 2.2
//
compound: CC(=O)OC1CC2CC1C1CC=CC21 (stereo not drawn)
observation type: BI
numeric value: 2.0

Exercise: I'd like to know its BI. The compound in question is CC1(C)CCc2ccc(CCC=O)cc21
Key: 1.3

Exercise: One more compound: C=CC(C)=CCC=C(C)C
Key: 2.8

Exercise: One more compound: CCCCCCCCCCCCO
Key: 2.3

Exercise: One more compound: CC(CCO)CCc1ccccc1 (stereo not drawn)
Key: 1.7

Exercise: One more compound: O=C1CCC2CCCCC2O1 (stereo not drawn) [3,4,4a,5,6,7,8,8a-octahydrochromen-2-one]
Key: 2.0

Exercise: One more compound: CCC(O)COC1CCCCC1C(C)(C)C (stereo not drawn)
Key: 2.0

Exercise: One more compound: CCCCCCCCCCCO
Key: 2.3

Exercise: One more compound: CCOC(=O)OC1C(C)CCC(C)C1C (stereo not drawn)
Key: 2.6

Exercise: One more compound: COC(=O)OC1CC/C=C\CCC1 (stereo not drawn)
Key: 2.7

Exercise: One more compound: CC1(C)C2CCC3(C2)C1C(=O)CCC3(C)C (stereo not drawn)
Key: 2.3

Exercise: One more compound: CC(=O)OCCCCCCC(C)C
Key: 2.7
